# Test system: human pulmonary artery smooth muscle cells (hPASMC)
# Run Description: BrdU cell proliferation assay, 0.1% FBS, 100 pM TGF-β, hPASMC
# Type: cell-based
# Condition Notes: Homo sapiens; hPASMC, 100 pM TGF-β, 0.1% FBS; read-out: EC50
pEC50 values by entry
Units for pEC50: none; it is -log10 of a concentration expressed in mol/L.

Request: pEC50 for CC(C)CCCC(C)C1CCC2C3=CC=C4CC(O)CCC4(C)C3CCC21C (stereo not shown) [Code 039, 7-DHC] ?
Result: 4.62

Request: What about O=c1cc(-c2ccccc2)oc2cc(O)c(O)c(O)c12 [Code 042, Baicalein] ?
Result: 5.40

Request: What about O=c1c(O)c(-c2ccc(O)c(O)c2)oc2cc(O)ccc12 [Code 050, Fisetin] ?
Result: 4.46

Request: What about CCCNS(=O)(=O)Nc1ncnc(OCCOc2ncc(Br)cn2)c1-c1ccc(Br)cc1 [Code 053, Macitentan] ?
Result: 4.23

* * *

# System: normal rat pulmonary artery smooth muscle cells (rPASMC CON)
# Run Description: BrdU cell proliferation assay, 10% FBS, rPASMC CON
# Format: cell-based
# Condition Notes: Rattus norvegicus; CON (normal rPASMC), 10% FBS; read-out: EC50 (concentration for 50% of maximal effect)
Observable: EC50 (µM)
Lab book: enter the figure in µM, no units written.

Request: EC50 for O=c1c(O)c(-c2ccc(O)c(O)c2)oc2cc(O)ccc12 [Code 050, Fisetin] ?
Result: 59

* * *

# Tested on: TGF-β-stimulated PAI-1 promoter activity
# Run Description: TGF-β stimulated Pai-1 luciferase assay in MLECs-clone32 cells
# Format: cell-based
# Condition Notes: TGF-β 50 pM, 4 hours, read-out: IC50 value of compound inhibiting TGF-β-stimulated Pai-1 luciferase activity (%)
Observable: IC50 (µM)
Lab book: enter the figure in µM, no units written.

Examples with their reported IC50 follow.
- CC(C)CCC[C@@H](C)[C@H]1CC[C@H]2C34C=CC5(C[C@@H](OC(=O)CBr)CC[C@]5(C)[C@H]3CC[C@]12C)n1c(=O)n(C)c(=O)n14 (some centres unmarked) [Code 203, MeTC7]: 17.5
- CC(C)CCCC(C)C1CCC2C3=CC=C4CC(O)CCC4(C)C3CCC21C (centres unmarked) [Code 039, 7-DHC]: 15.5

Request: IC50 for O=c1cc(-c2ccccc2)oc2cc(O)c(O)c(O)c12 [Code 042, Baicalein] ?
Result: 14.8

Request: What about CCCNS(=O)(=O)Nc1ncnc(OCCOc2ncc(Br)cn2)c1-c1ccc(Br)cc1 [Code 053, Macitentan] ?
Result: 82.9

Request: What about O=c1c(O)c(-c2ccc(O)c(O)c2)oc2cc(O)ccc12 [Code 050, Fisetin] ?
Result: 44.1

* * *

# Test system: PAH rat pulmonary artery smooth muscle cells (rPASMC MCT)
# Run Description: BrdU cell proliferation assay, 0.1% FBS, 100 pM TGF-β, rPASMC MCT
# Format: cell-based
# Condition Notes: Rattus norvegicus
Observable: pEC50
Units for pEC50: none; it is -log10 of a concentration expressed in mol/L.

Request: pEC50 for O=C(O)[C@H](O)Cc1ccc(O)c(O)c1 ?
Result: 4.44
